target: ABL1 (64-515) (Homo sapiens (Human)); assay: Radio ABL1 (64-515) assay (radiometric filter-binding); format: biochemical
pIC50: −log10 of the molar value.
Below is a list of entries, each paired with its recorded pIC50 value.
endpoint: pIC50

> print(dat)
                                   compound                                   tgt  value.prefix  assay.result
1  N[C@]1(C(F)(F)F)CCN(c2ncc(C(=O)Nc3ccc(OC(F)(F)F)cc3)cc2-c2cncnc2)C1 [Example 223]  ABL1 (64-515) (Homo sapiens (Human))             =          9.70
2  O=C(Nc1ccc(OC(F)(F)F)cc1)c1cnc(N2CC[C@@H](O)C2)c(-c2cncc(F)c2)c1 [Example 45]  ABL1 (64-515) (Homo sapiens (Human))             >          8.52
3  Cc1ncc(-c2cc(C(=O)Nc3ccc(OC(F)(F)F)cc3)cnc2N2CC[C@@H](O)C2)cn1 [Example 36]  ABL1 (64-515) (Homo sapiens (Human))             >          8.52
4  N#Cc1ccncc1-c1cc(C(=O)Nc2ccc(OC(F)(F)F)cc2)cnc1N1CC[C@@H](O)C1 [Example 240]  ABL1 (64-515) (Homo sapiens (Human))             =          8.70
5  O=C(Nc1ccc(OC(F)(F)F)cc1)c1cnc(N2CC[C@@H](O)C2)c(-c2cccnc2)c1 [Example 39]  ABL1 (64-515) (Homo sapiens (Human))             >          8.52
6  N#Cc1cncc(-c2cc(C(=O)Nc3ccc(OC(F)(F)Cl)cc3)cnc2N2C[C@@H](O)[C@@H](O)C2)c1 [Example 268]  ABL1 (64-515) (Homo sapiens (Human))             =          9.30
7  O=C(Nc1ccc(OC(F)(F)F)cc1)c1cnc(N2CCCC(CO)C2)c(-c2cncnc2)c1 (stereo not shown) [Example 19]  ABL1 (64-515) (Homo sapiens (Human))             >          8.52

* * *

target: ABL1 (64-515) (Homo sapiens (Human), UniProt P00519); experiment: Radio ABL1 (64-515) assay (radiometric filter-binding); type: biochemical
Sequence (P00519 64-515): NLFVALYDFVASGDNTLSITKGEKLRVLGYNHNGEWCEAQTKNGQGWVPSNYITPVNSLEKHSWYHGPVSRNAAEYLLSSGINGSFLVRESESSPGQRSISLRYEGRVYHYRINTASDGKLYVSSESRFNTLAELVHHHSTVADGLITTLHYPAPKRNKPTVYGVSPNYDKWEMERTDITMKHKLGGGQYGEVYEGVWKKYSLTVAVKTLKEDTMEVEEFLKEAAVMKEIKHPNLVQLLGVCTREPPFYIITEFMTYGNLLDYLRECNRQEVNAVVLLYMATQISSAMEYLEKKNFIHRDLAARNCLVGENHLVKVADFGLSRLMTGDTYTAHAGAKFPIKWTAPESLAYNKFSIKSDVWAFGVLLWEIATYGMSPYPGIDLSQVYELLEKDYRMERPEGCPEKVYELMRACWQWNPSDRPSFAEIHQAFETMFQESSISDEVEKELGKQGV
endpoint: IC50

> print(dat)
                                   compound  assay.result
1  O=C(Nc1ccc(OC(F)(F)Cl)cc1)c1cnc(N2Cc3cn[nH]c3C2)c(-c2cncnc2)c1 [Example 254]      < 0.1 nM
2  CN[C@@H]1CCN(c2ncc(C(=O)Nc3ccc(OC(F)(F)F)cc3)cc2-c2cncnc2)C1 [Example 99]        < 3 nM
3  CN(CCO)c1ncc(C(=O)Nc2ccc(SC(F)(F)F)cc2)cc1-c1cncc(F)c1 [Example 193]        2.3 nM
4  CN(CCO)c1ncc(C(=O)Nc2ccc(OC(F)(F)Cl)cc2)cc1-c1cncnc1 [Example 179]          2 nM

* * *

biological target: ABL1 (64-515) (Homo sapiens (Human), UniProt P00519); assay: Radio ABL1 (64-515) assay (radiometric filter-binding); assay type: biochemical
pIC50: −log10 of the molar value.
endpoint: pIC50

> print(dat)
                                    molecule                                       tgt  endpoint  value.prefix  assay.result
 1  CN[C@H]1CCN(c2ncc(C(=O)Nc3ccc(OC(F)(F)F)cc3)cc2-c2cccnc2)C1  ABL1 (64-515) (Homo sapiens (Human), UniProt P00519)     pIC50             >          8.52
 2  O=C(Nc1ccc(OC(F)(F)Cl)cc1)c1cnc(N2CC(O)C2)c(-c2cncnc2)c1  ABL1 (64-515) (Homo sapiens (Human), UniProt P00519)     pIC50             =          8.57
 3  NC[C@H]1CCN(c2ncc(C(=O)Nc3ccc(OC(F)(F)F)cc3)cc2-c2cccnc2)C1  ABL1 (64-515) (Homo sapiens (Human), UniProt P00519)     pIC50             >          8.52
 4  N[C@H]1CN(c2ccc(C(=O)Nc3ccc(OC(F)(F)Cl)cc3)cc2-c2cncnc2)C[C@@H]1O  ABL1 (64-515) (Homo sapiens (Human), UniProt P00519)     pIC50             =          8.30
 5  COc1ccc(-c2cc(C(=O)Nc3ccc(OC(F)(F)F)cc3)cnc2N2CC[C@@H](CN)C2)cn1  ABL1 (64-515) (Homo sapiens (Human), UniProt P00519)     pIC50             >          8.52
 6  Cc1ncccc1-c1cc(C(=O)Nc2ccc(OC(F)(F)Cl)cc2)cnc1N1CC[C@@H](O)C1  ABL1 (64-515) (Homo sapiens (Human), UniProt P00519)     pIC50             =          8.70
 7  O=C(Nc1ccc(OC(F)(F)F)cc1)c1cnc(N2CC[C@@H](O)C2)c(-c2cnc(Cl)c(F)c2)c1  ABL1 (64-515) (Homo sapiens (Human), UniProt P00519)     pIC50             >          8.52
 8  Cc1ccc(-c2cc(C(=O)Nc3ccc(OC(F)(F)F)cc3)cnc2N(C)CCCO)cn1  ABL1 (64-515) (Homo sapiens (Human), UniProt P00519)     pIC50             =          7.52
 9  Nc1ncc(-c2cc(C(=O)Nc3ccc(OC(F)(F)F)cc3)cnc2N2CC[C@@H](O)C2)cc1F  ABL1 (64-515) (Homo sapiens (Human), UniProt P00519)     pIC50             =          8.77
10  O=C(Nc1ccc(SC(F)(F)Cl)cc1)c1cnc(N2CC[C@@H](O)C2)c(-c2cncnc2)c1  ABL1 (64-515) (Homo sapiens (Human), UniProt P00519)     pIC50             =          8.70
11  N[C@@H]1CCN(c2ncc(C(=O)Nc3ccc(OC(F)(F)F)cc3)cc2-c2cccnc2)C1  ABL1 (64-515) (Homo sapiens (Human), UniProt P00519)     pIC50             >          8.52
12  CN(C)C1CN(c2ncc(C(=O)Nc3ccc(OC(F)(F)F)cc3)cc2-c2cncnc2)C1  ABL1 (64-515) (Homo sapiens (Human), UniProt P00519)     pIC50             =          8.22
13  CCN(CCO)c1ncc(C(=O)Nc2ccc(OC(F)(F)F)cc2)cc1-c1cncc(F)c1  ABL1 (64-515) (Homo sapiens (Human), UniProt P00519)     pIC50             >          8.52
14  O=C(Nc1ccc(OC(F)(F)F)cc1)c1cnc(N2CC[C@H](CO)C2)c(-c2ccc(C3CC3)nc2)c1  ABL1 (64-515) (Homo sapiens (Human), UniProt P00519)     pIC50             =          7.59
15  O=C(Nc1ccc(OC(F)(F)Cl)cc1)c1cnc(N2CCC(F)(F)C2)c(-c2cncnc2)c1  ABL1 (64-515) (Homo sapiens (Human), UniProt P00519)     pIC50             =          8.72
16  Nc1ncc(-c2cc(C(=O)Nc3ccc(OC(F)(F)F)cc3)cnc2N2CCCC2)cn1  ABL1 (64-515) (Homo sapiens (Human), UniProt P00519)     pIC50             >          8.52
17  O=C(Nc1ccc(OC(F)(F)C(F)(F)F)cc1)c1cnc(N2CC[C@@H](O)C2)c(-c2cncnc2)c1  ABL1 (64-515) (Homo sapiens (Human), UniProt P00519)     pIC50             =          8.22
18  CC(C)(O)C1CCN(c2ncc(C(=O)Nc3ccc(OC(F)(F)F)cc3)cc2-c2cccnc2)C1 (stereo not drawn)  ABL1 (64-515) (Homo sapiens (Human), UniProt P00519)     pIC50             =          8.22
19  N#Cc1cncc(-c2cc(C(=O)Nc3ccc(OC(F)(F)F)c(F)c3)cnc2N2CC[C@H](CO)C2)c1  ABL1 (64-515) (Homo sapiens (Human), UniProt P00519)     pIC50             =          9.00
20  O=C(Nc1ccc(OC(F)(F)F)cc1)c1ccc(N2CC[C@@H](O)C2)c(-c2cccnc2)c1  ABL1 (64-515) (Homo sapiens (Human), UniProt P00519)     pIC50             >          8.52
21  Cc1ccc(-c2cc(C(=O)Nc3ccc(OC(F)(F)C(F)F)cc3)cnc2N2CC[C@@H](O)C2)cn1  ABL1 (64-515) (Homo sapiens (Human), UniProt P00519)     pIC50             =          8.15
22  N#Cc1ccncc1-c1cc(C(=O)Nc2ccc(OC(F)(F)Cl)cc2)cnc1N1CC[C@@H](O)C1  ABL1 (64-515) (Homo sapiens (Human), UniProt P00519)     pIC50             >         10.00
23  CC(C)(O)C1CN(c2ncc(C(=O)Nc3ccc(OC(F)(F)F)cc3)cc2-c2cccnc2)C1  ABL1 (64-515) (Homo sapiens (Human), UniProt P00519)     pIC50             =          8.40
24  O=C(Nc1ccc(OC(F)(F)F)cc1)c1cnc(N2CC[C@@H](O)C2)c(-c2cc(F)nc(F)c2)c1  ABL1 (64-515) (Homo sapiens (Human), UniProt P00519)     pIC50             =          8.22
25  Cc1cncc(-c2cc(C(=O)Nc3ccc(OC(F)(F)F)cc3)cnc2N2CC[C@@H](O)C2)c1  ABL1 (64-515) (Homo sapiens (Human), UniProt P00519)     pIC50             >          8.52
26  N#Cc1ccc(-c2cc(C(=O)Nc3ccc(OC(F)(F)F)cc3)cnc2N2CC[C@H](CO)C2)cn1  ABL1 (64-515) (Homo sapiens (Human), UniProt P00519)     pIC50             =          8.30
27  CC1(O)CCN(c2ccc(C(=O)Nc3ccc(OC(F)(F)F)cc3)cc2-c2cncnc2)C1 (stereo not drawn)  ABL1 (64-515) (Homo sapiens (Human), UniProt P00519)     pIC50             >          8.52
28  Cc1ncc(-c2cc(C(=O)Nc3ccc(OC(F)(F)F)cc3)cnc2N2CC(C)(O)C2)cc1F  ABL1 (64-515) (Homo sapiens (Human), UniProt P00519)     pIC50             >          8.52
29  N[C@]1(C(F)(F)F)CCN(c2ncc(C(=O)Nc3ccc(OC(F)(F)Cl)cc3)cc2-c2cncnc2)C1  ABL1 (64-515) (Homo sapiens (Human), UniProt P00519)     pIC50             =          8.52
30  CN(C)[C@H]1CN(c2ncc(C(=O)Nc3ccc(OC(F)(F)Cl)cc3)cc2-c2cncnc2)C[C@@H]1O  ABL1 (64-515) (Homo sapiens (Human), UniProt P00519)     pIC50             >         10.00
